- TARGET_OR_SYSTEM: electric eel acetylcholinesterase (Electrophorus electricus)
- Construct: purchased Sigma Aldrich Chemie (Stenheim, Germany) type V-S
- Sequence (O42275 24-633): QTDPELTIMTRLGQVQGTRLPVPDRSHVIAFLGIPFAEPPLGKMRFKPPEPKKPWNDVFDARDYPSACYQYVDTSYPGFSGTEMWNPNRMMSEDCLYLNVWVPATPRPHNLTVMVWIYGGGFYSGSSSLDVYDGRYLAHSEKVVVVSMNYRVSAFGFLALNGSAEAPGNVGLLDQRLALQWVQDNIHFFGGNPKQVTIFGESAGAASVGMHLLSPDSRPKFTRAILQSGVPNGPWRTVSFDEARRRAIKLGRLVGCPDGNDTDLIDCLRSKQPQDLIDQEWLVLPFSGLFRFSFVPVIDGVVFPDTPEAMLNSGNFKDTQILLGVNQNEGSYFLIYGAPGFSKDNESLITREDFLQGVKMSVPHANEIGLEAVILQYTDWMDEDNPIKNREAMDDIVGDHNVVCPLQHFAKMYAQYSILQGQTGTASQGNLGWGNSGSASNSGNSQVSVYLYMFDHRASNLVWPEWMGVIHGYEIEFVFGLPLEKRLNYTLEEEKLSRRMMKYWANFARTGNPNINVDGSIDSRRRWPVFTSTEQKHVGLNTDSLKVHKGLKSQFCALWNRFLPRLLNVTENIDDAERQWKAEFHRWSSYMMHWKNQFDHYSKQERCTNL
- EXPERIMENTAL_DETAILS: biochemical
- CONDITION_INFO: in vitro; read-out: EC50, inhibition of electric eel acetylcholinesterase in vitro
For each record, write down the corresponding pEC50.
Answers are plain numbers, as −log10 of the molar value.

COc1ccc2c3c1O[C@H]1C[C@@H](O)C=C[C@@]31CC[N+](C)([O-])C2 (some centres unmarked) [Galanthamine N-oxide (3), galanthamine N-oxide] :: 4.59

pEC50 reading for COC1C=CC23CCN(C)Cc4ccc(O)c(c42)OC3C1 (centres unmarked) [Chlidanthine (1), chlidanthine] : 4.62

* * *

- Test system: HIV-1 (NL4-3)
- EXPERIMENTAL_DETAILS: Anti-HIV activity in MT-4 cells (MTT viability of infected cells)
- Type: cell-based
- CONDITION_INFO: Human immunodeficiency virus 1, NL43, MT4, 120 h, read-out: EC50 HIV-1 (NL4-3): effective concentration needed to inhibit 50% HIV-induced cell death, 5 days
MEASUREMENT_KIND: EC50

COc1cc2c(cc1O)[C@@H]1[C@H](OC2=O)[C@@H](OC)[C@@H]2O[C@@]23CCN(C)[C@@H]13 :: > 71.4 µg/mL
O[C@H]1[C@H]2c3cc4c(cc3CN3CCC(=C[C@@H]1O)[C@H]23)OCO4 :: > 0.5 µg/mL
COc1ccc2c3c1O[C@H]1C[C@@H](O)C=C[C@@]31CCN(C)C2 [Galanthamine (2), galanthamine, reference compound] :: > 25 µg/mL
COc1ccc2c3c1O[C@H]1C[C@H](O)C=C[C@@]31CCNC2 [Epinorgalanthamine (6), epinorgalanthamine] :: > 13 µg/mL
Cc1ccnc2c1NC(=O)c1cccnc1N2C1CC1 [Nevirapine, reference compound] :: 0.034 µg/mL

Dear colleague, could you please provide EC50 for the compounds listed below?
1. COC1C=CC23CCN(C)Cc4ccc(O)c(c42)OC3C1 (centres unmarked)
2. c1cc(CN2CCCNCCNCCCNCC2)ccc1CN1CCCNCCNCCCNCC1 [AMD3100, reference compound]

Out:
> 25 µg/mL
0.001 µg/mL

Entry COc1ccc2c3c1O[C@H]1C[C@@H](O)C=C[C@@]31CC[N+](C)([O-])C2 (some centres unmarked) [Galanthamine N-oxide (3), galanthamine N-oxide] ; assay system HIV-1 (NL4-3); EC50 recorded at > 25 µg/mL
